Listed here: items and their measured Population Apoptotic (%).
system: HEK-293T; experiment: Multiplex assay against HEK293T; assay type: toxicity, cell-based; conditions: human, 24 h, 1 µM, compound concentration 1 uM, replicate 2
The answer is to be given in %; state only the numeric part.

compound: CNc1oc(-c2cccc3ccccc23)nc1C#N
readout value: 32

compound: CCCn1c(=O)c2[nH]c(C34CC5CC(CC3C5)C4)nc2n(CCC)c1=O
readout value: 15

compound: COc1cc(N2CCC(N(C)C)CC2)ccc1Nc1ncc(Cl)c(Nc2ccccc2P(C)(C)=O)n1
readout value: 12

compound: Cc1cc2c(cc1N1C(=O)c3cccc4c(CCCO)ccc(c34)C1=O)n(C)c(=O)n2C
readout value: 13

compound: CCn1c(-c2nonc2N)nc2cnc(Oc3cccc(NC(=O)c4ccc(OCCN5CCOCC5)cc4)c3)cc21 [GSK-269962A]
readout value: 11

compound: CNC(=O)c1cc(Oc2ccc(NC(=O)Nc3cc(C(C)(C)C)nn3-c3ccc4ncccc4c3)c(F)c2)ccn1
readout value: 3

compound: COc1cc2c(NC3CCN(C(C)C)CC3)nc(N3CCC(F)(F)CC3)nc2cc1OCCCN1CCCC1
readout value: 39

compound: CNC(=O)c1nn(C)c2c1C(C)(C)Cc1cnc(Nc3ccc(N4CCN(C)CC4)cc3)nc1-2
readout value: 34

For reference, reported Population Apoptotic (%) for Cl.Cl.Nc1ncnc2c1c(-c1cccc(OCc3ccccc3)c1)cn2[C@H]1C[C@@H](CN2CCC2)C1 stands at 67

Record summary for CCC(=O)O[C@]1(C(=O)SCF)[C@H](C)C[C@H]2[C@@H]3C[C@H](F)C4=CC(=O)C=C[C@]4(C)[C@@]3(F)[C@@H](O)C[C@@]21C [FLUTICASONE PROPIONATE] : reported Population Apoptotic (%) = 7

Consider Cl.Cl.NC1(c2ccc(-c3nc4ccn5c(=O)[nH]nc5c4cc3-c3ccccc3)cc2)CCC1 . Its measured Population Apoptotic (%) is 8

The recorded Population Apoptotic (%) for CN(C)C/C=C/C(=O)Nc1cc2c(Nc3ccc(F)c(Cl)c3)ncnc2cc1O[C@H]1CCOC1.O=C(O)/C=C\C(=O)O.O=C(O)/C=C\C(=O)O [AFATINIB DIMALEATE] is 12

Population Apoptotic (%) in this record for O=C(O)c1ccc2cc(-c3ccc(O)c(C45CC6CC(CC(C6)C4)C5)c3)ccc2c1 : 13

Just so you know, measured Population Apoptotic (%) for Cc1cn(-c2cc(NC(=O)c3ccc4c(c3)CN(c3cncnc3)C[C@@H]4C)cc(C(F)(F)F)c2)cn1 came out at 6

CC(=O)O[C@H]1C(=O)[C@@]2(C)[C@H]([C@H](OC(=O)c3ccccc3)[C@]3(O)C[C@H](OC(=O)[C@H](O)[C@@H](NC(=O)c4ccccc4)c4ccccc4)C(C)=C1C3(C)C)[C@]1(OC(C)=O)CO[C@@H]1C[C@@H]2O has a reported Population Apoptotic (%) of 7

* * *

Recorded measurements of Population Membrane Permeable-Phenotype (%), one per entry
system: Fibroblast; assay: Multiplex assay against human fibroblast; format: toxicity, cell-based; details: 12 h, 1 µM, compound concentration 1 uM, replicate 1
Write down the value, and be sure its unit follows.

compound: COc1ccc(NS(=O)(=O)c2sc3ccc(Cl)cc3c2C)cc1N1CCNCC1.Cl
readout value: 30%

compound: CCC(=O)O[C@]1(C(=O)SCF)[C@H](C)C[C@H]2[C@@H]3C[C@H](F)C4=CC(=O)C=C[C@]4(C)[C@@]3(F)[C@@H](O)C[C@@]21C [FLUTICASONE PROPIONATE]
readout value: 33%

compound: CCn1c(-c2nonc2N)nc2cnc(Oc3cccc(NC(=O)c4ccc(OCCN5CCOCC5)cc4)c3)cc21 [GSK-269962A]
readout value: 22%

compound: Cl.Cl.Nc1ncnc2c1c(-c1cccc(OCc3ccccc3)c1)cn2[C@H]1C[C@@H](CN2CCC2)C1
readout value: 21%

compound: CC(=O)O[C@H]1C(=O)[C@@]2(C)[C@H]([C@H](OC(=O)c3ccccc3)[C@]3(O)C[C@H](OC(=O)[C@H](O)[C@@H](NC(=O)c4ccccc4)c4ccccc4)C(C)=C1C3(C)C)[C@]1(OC(C)=O)CO[C@@H]1C[C@@H]2O
readout value: 5%

# compound Cl.Cl.NC1(c2ccc(-c3nc4ccn5c(=O)[nH]nc5c4cc3-c3ccccc3)cc2)CCC1 ; its Population Membrane Permeable-Phenotype (%) = 4%
